- Tested on: TNFα
- METHOD: Cot Monocyte TNFα Cell Based Assay
- RUN_CONDITIONS: Homo sapiens, Monocyte, read-out: EC50 TNF, LPS-stimulated human monocytes, TNFα
# reported EC50; entries follow
RESULT_TYPE: EC50 (nM)

{"SMILES_INPUT": "N#Cc1cnc2c(Cl)cc(N[C@@H](c3cccnc3)c3cn(CCCN4CCCC4)nn3)cc2c1Nc1cnc(F)c(F)c1", "SYSTEM_UNDER_TEST": "TNFα", "RESULT_TYPE": "EC50", "REPORTED_RESULT": 558}
{"SMILES_INPUT": "CN1Cc2c(cccc2[C@H](Nc2cc(Cl)c3ncc(C#N)c(NCC(C)(C)C)c3c2)c2cn(C3(C(F)F)CC3)nn2)C1=O", "SYSTEM_UNDER_TEST": "TNFα", "RESULT_TYPE": "EC50", "REPORTED_RESULT": 91}
{"SMILES_INPUT": "Cc1nc(F)ccc1[C@H](Nc1cc(Cl)c2ncc(C#N)c(NC3CCCCC3)c2c1)c1cn(C2(C(F)(F)F)CC2)nn1", "SYSTEM_UNDER_TEST": "TNFα", "RESULT_TYPE": "EC50", "REPORTED_RESULT": 629}
{"SMILES_INPUT": "Cc1nc(Cl)ccc1[C@H](Nc1cc(Cl)c2ncc(C#N)c(NCC(C)(C)C)c2c1)c1cn(C2(C(F)(F)F)CC2)nn1", "SYSTEM_UNDER_TEST": "TNFα", "RESULT_TYPE": "EC50", "REPORTED_RESULT": 130}
{"SMILES_INPUT": "N#CCn1cc([C@@H](Nc2cc(Cl)c3ncc(C#N)c(Nc4ccc(F)c(Cl)c4)c3c2)c2cscn2)nn1", "SYSTEM_UNDER_TEST": "TNFα", "RESULT_TYPE": "EC50", "REPORTED_RESULT": 241}
{"SMILES_INPUT": "Cc1ncsc1[C@H](Nc1cc(Cl)c2ncc(C#N)c(N[C@H](C)c3ccccc3)c2c1)c1cn(C(C)C)nn1", "SYSTEM_UNDER_TEST": "TNFα", "RESULT_TYPE": "EC50", "REPORTED_RESULT": 928}
{"SMILES_INPUT": "Cc1nc(F)ccc1[C@H](Nc1cc(Cl)c2ncc(C#N)c(NCC(C)(C)C)c2c1)c1cn(C2(C)COC2)nn1", "SYSTEM_UNDER_TEST": "TNFα", "RESULT_TYPE": "EC50", "REPORTED_RESULT": 42}

###

# reported IC50; entries follow
- SYSTEM_UNDER_TEST: Human Cot (Homo sapiens (Human))
- Sequence (P41279 30-397): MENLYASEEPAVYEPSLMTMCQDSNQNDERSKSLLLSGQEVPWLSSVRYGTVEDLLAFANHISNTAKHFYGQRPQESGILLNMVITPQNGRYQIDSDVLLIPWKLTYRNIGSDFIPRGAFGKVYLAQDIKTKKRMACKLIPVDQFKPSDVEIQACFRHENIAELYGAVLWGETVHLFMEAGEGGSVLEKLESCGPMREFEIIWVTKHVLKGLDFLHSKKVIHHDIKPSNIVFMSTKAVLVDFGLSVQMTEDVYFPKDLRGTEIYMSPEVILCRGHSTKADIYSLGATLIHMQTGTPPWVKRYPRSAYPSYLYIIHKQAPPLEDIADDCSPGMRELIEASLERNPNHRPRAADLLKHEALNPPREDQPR
- METHOD: High Throughput Cot Biochemical Assay
- RUN_CONDITIONS: IC50 HTRF, Cot HTRF (TR-FRET) biochemical assay

{"COMPOUND": "N#Cc1cnc2c(Cl)cc(N[C@@H](c3cncc(Cl)c3)c3c[nH]nn3)cc2c1Nc1cnc(F)c(F)c1", "IC50": "10 nM"}
{"COMPOUND": "CCc1ncccc1[C@H](Nc1cc(Cl)c2ncc(C#N)c(NCC(C)(C)C)c2c1)c1cn(C2(C(F)F)CC2)nn1", "IC50": "3 nM"}
{"COMPOUND": "CC(C)n1cc([C@@H](Nc2cc(Cl)c3ncc(C#N)c(N[C@H](c4ccccc4)C(C)(C)O)c3c2)c2cccnc2)nn1", "IC50": "> 10000 nM"}
{"COMPOUND": "CC(C)(C)CNc1c(C#N)cnc2c(Cl)cc(N[C@H](c3cn(C4(C(F)(F)F)CC4)nn3)c3cccc4cnccc34)cc12", "IC50": "162 nM"}
{"COMPOUND": "Cn1ccc2c([C@H](Nc3cc(Cl)c4ncc(C#N)c(NCC(C)(C)C)c4c3)c3cn(C4CCN(C(C)(C)C)CC4)nn3)cccc2c1=O", "IC50": "6 nM"}
{"COMPOUND": "CC(C)(C)CNc1c(C#N)cnc2c(C#N)cc(N[C@H](c3cn(C4(CO)CC4)nn3)c3cccc4ncsc34)cc12", "IC50": "2 nM"}
{"COMPOUND": "[2H]C(Nc1cc(Cl)c2ncc(C#N)c(N[C@@H](CCC#N)c3ccccc3)c2c1)(c1ccc(F)nc1)c1cn(C2CC2)nn1 (stereo partly shown)", "IC50": "1160 nM"}
{"COMPOUND": "[2H][C@](Nc1cc(Cl)c2ncc(C#N)c(NC3CCOCC3(C)C)c2c1)(c1ccc(F)nc1)c1cn(C2CC2)nn1 (stereo partly shown)", "IC50": "6 nM"}
{"COMPOUND": "CC(C)(C)CNc1c(C#N)cnc2c(Cl)cc(N[C@H](c3cn(C4(C(N)=O)CC4)nn3)c3cccc4cnccc34)cc12", "IC50": "2 nM"}
{"COMPOUND": "N#Cc1cnc2c(Cl)cc(N[C@@H](c3cccnc3)c3cn(-c4ccccc4)nn3)cc2c1Nc1cnc(F)c(F)c1", "IC50": "11 nM"}
{"COMPOUND": "Cc1nc(F)ccc1[C@H](Nc1cc(Cl)c2ncc(C#N)c(NCC(C)(C)C)c2c1)c1cn(C2(C)CC2)nn1", "IC50": "2 nM"}
{"COMPOUND": "CN1Cc2cccc([C@H](Nc3cc(Cl)c4ncc(C#N)c(NCC(C)(C)C)c4c3)c3cn(C4(C(F)F)CC4)nn3)c2C1=O", "IC50": "19 nM"}
{"COMPOUND": "CC(C)(C)CNc1c(C#N)cnc2c(Cl)cc(N[C@H](c3cn(C4CC4)nn3)c3cncc4cnccc34)cc12", "IC50": "28 nM"}

###

- System: TNFα
- METHOD: Cot Monocyte TNFα Cell Based Assay
- RUN_CONDITIONS: Homo sapiens, Monocyte, read-out: EC50 TNF, LPS-stimulated human monocytes, TNFα
RESULT_TYPE: log10 of EC50 (log10 of the value in nM)

{"MOLECULE": "CC[C@@H](Nc1c(C#N)cnc2c(Cl)cc(N[C@@H](c3cccnc3)c3cn(CC#N)nn3)cc12)c1ccccc1", "log10 of EC50": 1.86}
{"MOLECULE": "CC(C)(C)n1cc([C@@H](Nc2cc(Cl)c3ncc(C#N)c(Nc4ccc(F)c(Cl)c4)c3c2)c2cocn2)nn1", "log10 of EC50": 3.37}
{"MOLECULE": "Cc1nc(F)ccc1[C@H](Nc1cc(Cl)c2ncc(C#N)c(Nc3cnc(F)c(F)c3)c2c1)c1cn(C2(C(F)F)CC2)nn1", "log10 of EC50": 2.30}
{"MOLECULE": "Cc1ccc([C@H](Nc2cc(Cl)c3ncc(C#N)c(NCC(C)(C)C)c3c2)c2cn(C3(C(F)(F)F)CC3)nn2)cn1", "log10 of EC50": 2.72}
{"MOLECULE": "Cc1nc(F)ccc1[C@H](Nc1cc(Cl)c2ncc(C#N)c(NCC3(C)COC3)c2c1)c1cn(C2(C(F)(F)F)CC2)nn1", "log10 of EC50": 2.93}
{"MOLECULE": "[2H]C(Nc1cc(Cl)c2ncc(C#N)c(NC(CCC#N)c3ccccc3)c2c1)(c1ccc(F)nc1)c1cn(C2CC2)nn1 (centres unmarked)", "log10 of EC50": 1.87}
{"MOLECULE": "Cc1ncccc1[C@H](Nc1cc(Cl)c2ncc(C#N)c(Nc3ccc(Cl)c(Cl)c3F)c2c1)c1c[nH]nn1", "log10 of EC50": 3.81}
{"MOLECULE": "N#Cc1cnc2c(Cl)cc(N[C@@H](c3cccnc3)c3cn(C4COC4)nn3)cc2c1Nc1cccc(Cl)c1", "log10 of EC50": 2.82}
{"MOLECULE": "Cc1nc(F)ccc1[C@H](Nc1cc(F)c2ncc(C#N)c(NCC(C)(C)C)c2c1)c1cn(C2(C#N)CC2)nn1", "log10 of EC50": 1.46}
{"MOLECULE": "N#Cc1cnc2c(Cl)cc(N[C@@H](c3cccnc3)c3c[nH]nn3)cc2c1Nc1cccc(Cl)c1F", "log10 of EC50": 2.33}
{"MOLECULE": "CC(C)n1cc([C@@H](Nc2cc(Cl)c3ncc(C#N)c(Nc4ccc(F)c(Cl)c4)c3c2)c2ccnn2C)nn1", "log10 of EC50": 2.37}
{"MOLECULE": "CC(C)(C)N1CCC(n2cc([C@@H](Nc3cc(Cl)c4ncc(C#N)c(Nc5ccc(Cl)c(Cl)c5)c4c3)c3cscn3)nn2)CC1", "log10 of EC50": 3.65}
{"MOLECULE": "C[C@@H](CF)n1cc([C@@H](Nc2cc(Cl)c3ncc(C#N)c(Nc4cnc(F)c(F)c4)c3c2)c2cccnc2)nn1", "log10 of EC50": 2.78}
{"MOLECULE": "CC(C)(C)N1CCC(n2cc([C@@H](Nc3cc(Cl)c4ncc(C#N)c(Nc5ccc(F)c(Cl)c5)c4c3)C3=CCOCC3)nn2)CC1", "log10 of EC50": 1.85}
{"MOLECULE": "CC(C)(C)CNc1c(C#N)cnc2c(Cl)cc(N[C@H](c3cn(C4CC4)nn3)c3cncc4cnccc34)cc12", "log10 of EC50": 2.97}
{"MOLECULE": "CCN1Cc2ccc([C@H](Nc3cc(Cl)c4ncc(C#N)c(Nc5ccc(F)c(Cl)c5)c4c3)c3cn(C4CCN(C(C)(C)C)CC4)nn3)cc2C1", "log10 of EC50": 3.47}
{"MOLECULE": "Cn1cnc(C(Nc2cc(Cl)c3ncc(C#N)c(Nc4ccc(F)c(Cl)c4)c3c2)c2cccnc2)c1 (centres unmarked)", "log10 of EC50": 2.46}
{"MOLECULE": "CC(C)(C)CNc1c(C#N)cnc2c(Cl)cc(N[C@H](c3cn(C4CCN(C(C)(C)C)CC4)nn3)c3cccc4ncsc34)cc12", "log10 of EC50": 1.69}
{"MOLECULE": "Cn1cnc2c([C@H](Nc3cc(Cl)c4ncc(C#N)c(NCC(C)(C)C)c4c3)c3cn(C45CC(C4)C5)nn3)cccc2c1=O", "log10 of EC50": 2.19}
{"MOLECULE": "Cc1ccc([C@H](Nc2cc(Cl)c3ncc(C#N)c(NCC(C)(C)C)c3c2)c2cn(C3(C(F)(F)F)CC3)nn2)c(F)n1", "log10 of EC50": 2.64}
{"MOLECULE": "[2H]C([2H])([2H])n1ccc2c([C@H](Nc3cc(Cl)c4ncc(C#N)c(NCC(C)(C)C)c4c3)c3cn(C45CC(C4)C5)nn3)cccc2c1=O", "log10 of EC50": 1.51}
{"MOLECULE": "Cn1ccc2c([C@H](Nc3cc(Cl)c4ncc(C#N)c(NCC(C)(C)C)c4c3)c3cn(C4CC4)nn3)cccc2c1=O", "log10 of EC50": 1.45}
{"MOLECULE": "CC(C)(C)CNc1c(C#N)cnc2c(C#N)cc(N[C@H](c3cn(C4(c5ccncc5)CC4)nn3)c3cccc4ncsc34)cc12", "log10 of EC50": 1.20}
{"MOLECULE": "Cc1ncccc1[C@H](Nc1cc(Cl)c2ncc(C#N)c(N[C@H](C)c3ccccc3)c2c1)c1cn(C(C)C)nn1", "log10 of EC50": 2.40}
{"MOLECULE": "CC(C)(C)N1CCC(n2cc([C@@H](Nc3cc(Cl)c4ncc(C#N)c(Nc5cccc(Cl)c5F)c4c3)c3csc4c3CCN(C3COC3)C4)nn2)CC1", "log10 of EC50": 1.51}

Values from patent US11066414B2
